target: anti-A010 antibody (MEK1 PET); assay: peptide competition assay in 6% BSA
Where no end group is shown, it is not given here.
measured parameter: pIC50
Give bare numbers, as −log10 of the molar value.

Could you tell me which pIC50 is on file for Ac-PTPIQLNPAPDGC [A010 peptide (MEK1), Ac-…] ? 7.44
